assay: in vitro; parameters: species or system HB2, CCD841; conditions: human, hek293 cells
Listing of entries alongside the reported viability at 48 h, 10 µM.
Lab book: enter the figure in %, no units written.

Examples with their reported viability at 48 h, 10 µM follow.
compound	quantityMeasured	measurement
CN(Cc1cc(C#N)ccc1F)C(=O)CCl [PCM-0102897]	viability at 48 h, 10 µM	9.6
CC(C)(C)c1cc(NC(=O)CCl)on1 [PCM-0102348]	viability at 48 h, 10 µM	60.9
O=C(CCl)N1CCN(c2ncc(Cl)cc2Cl)CC1 [PCM-0103022]	viability at 48 h, 10 µM	13.4

// fetch viability at 48 h, 10 µM given entry Cc1nc(NC(=O)CCl)sc1C [PCM-0102124]
32.2

Specify measured viability at 48 h, 10 µM for O=C(CCl)Nc1cc2c(cc1Br)OCCO2 [PCM-0102299] .
12.6

----------
assay: in vitro; set-up: species or system HB2, CCD841; details: human, hek293 cells
Listing of entries alongside the reported viability at 48 h, 10 µM.
Quick note: give the figure in %, leave out the unit.

Provide viability at 48 h, 10 µM value for the following compound: C=CC(=O)N1CCCN(S(=O)(=O)c2cccc3cnccc23)CC1
99.9

Output viability at 48 h, 10 µM of CN(C(=O)CCl)c1nc2ccccc2s1
87.7

Give the value of viability at 48 h, 10 µM reported for the following: O=C(CCl)N1CCNC1=O
86.5

Indicate its recorded viability at 48 h, 10 µM; the compound in question is O=C(CCl)Nc1ccc(F)cc1Cl
60.3

Specify viability at 48 h, 10 µM for O=C(CCl)N1N=C(c2ccco2)CC1c1ccco1 (stereo not drawn) and stop.
40.4

Tell me its viability at 48 h, 10 µM given O=C(CCl)NNC(=O)c1cccc(Cl)c1 as the entry.
94.8

----------
Target: NNMT (hNNMT) (Homo sapiens, UniProt P40261)
Construct: wild type, N-terminal His6 tag kept (no cleavage described), E. coli, construct 31248 Da
Sequence (P40261 whole entry): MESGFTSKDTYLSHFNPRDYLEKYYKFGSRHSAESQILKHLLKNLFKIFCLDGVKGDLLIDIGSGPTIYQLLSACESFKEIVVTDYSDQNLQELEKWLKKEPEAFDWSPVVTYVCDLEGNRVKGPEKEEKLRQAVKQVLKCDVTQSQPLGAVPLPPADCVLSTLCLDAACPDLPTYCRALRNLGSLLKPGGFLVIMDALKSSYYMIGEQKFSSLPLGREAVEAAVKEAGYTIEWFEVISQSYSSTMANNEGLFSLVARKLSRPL
Design: Intact protein LC/MS covalent labelling, fragments in pools of five, 200 uM each, 4 °C
Details: 24 h, 4 °C, pool of five; 200 µM; covalent
Protocol: Incubations were performed at 200 μM for each compound and 2 μM of protein (10 μM for BSA) for 24 h at 4 °C with moderate shaking. […] Following incubation, we used intact protein [compound left out] chromatography/mass spectrometry (LC/MS) to identify the fragments and quantify their labeling (Figure 3A). […]
The compounds listed here are annotated with their NNMT.
Please reply with the number alone, leaving off any unit.

compound	NNMT
C=CC(=O)N1CCC(C(=O)[O-])CC1.[Na+]	0

State, in one line, measured NNMT of C=CC(=O)N(C)C1CCCc2nc(CC)sc21 (stereo not drawn)
0

For the compound O=C(CCl)Nc1ccccc1N1CCCC1=O , give its reported NNMT.
0

----------
test: in vitro; set-up: species or system CCD841, HEK293; settings: human, hb2 cells, read-out: HB-2 Cells Viability (%)
Recorded viability at 48 h, 10 µM split into classes I = under 50%, II = from 50% up to 80%, III = 80% and over

molecule	groupLabel
CN(Cc1ccco1)C(=O)CCl [PCM-0102672]	II
CCC1CCCCN1C(=O)CCl (stereo not shown) [PCM-0102828]	III

Hi there! Could you help me figure out the category for CC(C)(C)c1ccc(C(=O)NNC(=O)CCl)cc1 [PCM-0102355] please?
I

Category of CCC1(C)NC(=O)N(NC(=O)CCl)C1=O (stereo not shown) [PCM-0102205] :
III

Which band does O=C(CCl)Nc1ccc(N2CCCCCC2)cc1 [PCM-0102199] fall in?
I

Any idea which band CC(NC(=O)CCl)c1cccc2ccccc12 (stereo not shown) [PCM-0102275] is in?
II

Category lookup for the molecule CN(Cc1c(F)cccc1Cl)C(=O)CCl [PCM-0102184]
I

Looking at O=C(CCl)Nc1ccon1 [PCM-0103077] , which class would you pick?
II

----------
assay: in vitro; design: species or system HB2, CCD841; conditions: human, hek293 cells
Consider the following compounds and their measured viability at 48 h, 10 µM readings.
The reply should read as a number followed by its unit.

compound	viability at 48 h, 10 µM
Cc1cccc(C(C)C)c1NC(=O)CCl	76.5%
CC(NC(=O)CCl)c1cccc2ccccc12 (stereo not drawn)	47.3%

We now examine a further compound.
Give viability at 48 h, 10 µM for the following compound: Cc1cc(NC(=O)CCl)no1
60.3%

----------
viability at 48 h, 10 µM values, listed per item
test: in vitro; design: species or system HB2, HEK293; settings: human, ccd841 cells
Please respond with the number in % and leave the unit unwritten.

molecule	quantityMeasured	measurement
N#Cc1oc2ccccc2c1NC(=O)CCl [PCM-0102252]	viability at 48 h, 10 µM	34.7
C=CC(=O)Nc1cccc(F)c1C [PCM-0102413]	viability at 48 h, 10 µM	86
CC(C)(C)C(=O)NC(=O)CCl [PCM-0103021]	viability at 48 h, 10 µM	116

Look up and report measured viability at 48 h, 10 µM for this entry: NS(=O)(=O)c1ccc(Cl)c(NC(=O)CCl)c1 [PCM-0103012]
67.1

Quickly give me recorded viability at 48 h, 10 µM for C=CC(=O)N1CC(=O)NC2CCCCC21 (stereo not drawn) [PCM-0102717]
105

Item O=C1CN(C(=O)CCl)CCN1 [PCM-0103008] : provide viability at 48 h, 10 µM
92.8

Answer with the recorded viability at 48 h, 10 µM of O=C(CCl)NC1CCCCCCC1 [PCM-0102318] only.
92.1

Give viability at 48 h, 10 µM for CN(Cc1ccccc1Br)C(=O)CCl [PCM-0102592]
71.9

Tell me viability at 48 h, 10 µM reported for O=C(CCl)N1CCC(C(=O)N2CCCCC2)CC1 [PCM-0102972]
106

Respond only with viability at 48 h, 10 µM recorded for Cl.O=C(CCl)N1CCN(c2ccccc2F)CC1 [PCM-0102373]
79.7

Look up and report measured viability at 48 h, 10 µM for this entry: CC1CCC(N(C(=O)CCl)C2CC2)CC1 (stereo not drawn) [PCM-0102792]
8.8

Please list viability at 48 h, 10 µM recorded for the molecule C=CC(=O)Nc1nc2ccccc2s1 [PCM-0102695]
50.3

Determine from records and report viability at 48 h, 10 µM for C=CC(=O)NCC1CCOC2(CCC2)C1 (stereo not drawn) [PCM-0102523]
117

Fill in viability at 48 h, 10 µM for record C=CC(=O)N1CCCCC1c1cnn(C)c1 (stereo not drawn) [PCM-0102675]
103

Note viability at 48 h, 10 µM for the molecule shown: O=C(CCl)NCC1CCS(=O)(=O)C1 (stereo not drawn) [PCM-0102896]
92.3

Supply viability at 48 h, 10 µM value. Item: O=C(CCl)NC(=O)NC1CC1 [PCM-0102411]
84.9

Give the measured viability at 48 h, 10 µM for C=CC(=O)NCC1COc2ccccc2O1 (stereo not drawn) [PCM-0102713]
102

// Input: O=C(CCl)NC(=O)NCc1cccs1 [PCM-0102753] . Output its viability at 48 h, 10 µM only.
71.1

// Input: COC(=O)c1c(NC(=O)CCl)sc2c1CCCC2 [PCM-0102143] . Output its viability at 48 h, 10 µM only.
68.1

Respond only with viability at 48 h, 10 µM recorded for C=CC(=O)N1CCC(n2cc(C)cn2)CC1 [PCM-0102423]
108

Report viability at 48 h, 10 µM for CC(C)C(=O)NNC(=O)CCl [PCM-0103014]
95.1

----------
assay: in vitro; parameters: species or system CCD841, HEK293; settings: human, hb2 cells, read-out: HB-2 Cells Viability (%)
# viability at 48 h, 10 µM values compiled below
# unit: % | format: bare number

compound	measurement
CC(C)N(C(=O)CCl)C1CCCC1	88.4
O=C(CCl)Nc1cccc(C(=O)O)c1	90.3
O=C(CCl)NN1C(=O)NC2(CCCCC2)C1=O	95
O=C(CCl)Nc1cccc2ccccc12	16.3
O=C(CCl)Nc1ccc(N2CCCCC2)cc1	41.7

Check the records and state viability at 48 h, 10 µM for O=C(CCl)NCC1CCCc2ccccc21 (stereo not shown)
67.3

Quick one: give measured viability at 48 h, 10 µM for CC(C)N(C)C(=O)C1CCN(C(=O)CCl)CC1
86.7

Report viability at 48 h, 10 µM, nothing else, for this compound: C=CC(=O)NCC1CCN(C)c2ccccc21 (stereo not shown)
106

Annotate the compound C=CC(=O)N1CCCC2(CNC(=O)O2)C1 (stereo not shown) with its measured viability at 48 h, 10 µM.
103

Return viability at 48 h, 10 µM for the following compound: CC(NC(=O)CCl)C(=O)N1CCCCC1 (stereo not shown)
101

Give the value of viability at 48 h, 10 µM reported for the following: O=C(CCl)N1CCN(S(=O)(=O)c2ccc(F)c(Cl)c2)CC1
1.4

Given Cc1ccc(C(=O)O)cc1NC(=O)CCl , respond with its viability at 48 h, 10 µM.
102

Please look at this compound and report its viability at 48 h, 10 µM: O=C(CCl)N1CCC(c2ccccc2)=N1
31.2

Read the entry C=CC(=O)N1CCCC(CC(=O)OC(C)(C)C)CC1 (stereo not shown) and write its reported viability at 48 h, 10 µM.
106

State its viability at 48 h, 10 µM for this compound: Cc1ccsc1CNC(=O)CCl
96.1

Supply reported viability at 48 h, 10 µM belonging to this compound: N#Cc1ccc(C(=O)NNC(=O)CCl)cc1
86.2

Answer with the recorded viability at 48 h, 10 µM for the compound listed here: C=CC(=O)NC(C)(C)c1cc(C(F)(F)F)on1
99.9

Read the entry Cl.O=C(CCl)Nc1ccncc1 and write its reported viability at 48 h, 10 µM.
86.4

Output viability at 48 h, 10 µM of C=CC(=O)N1CC(=O)NC2CCCCC21 (stereo not shown)
100

Input C=CC(=O)N1CCc2c(ncn(CC)c2=O)C1 , output reported viability at 48 h, 10 µM.
101

Annotate the compound C=CC(=O)N1CCN(C(=O)CN2C(=O)CCC2=O)CC1 with its measured viability at 48 h, 10 µM.
99.9

Recall and state the measured viability at 48 h, 10 µM for O=C(CCl)N(CC(F)(F)F)c1ccc(Cl)cc1 .
11.2

Kindly indicate its recorded viability at 48 h, 10 µM. Item: Cc1c(Cl)cnc(NC(=O)CCl)c1Cl
101

Specify viability at 48 h, 10 µM for Cc1c(C#N)c(NC(=O)CCl)n(-c2ccccc2)c1C and stop.
42.5

Item CC(C)N1CCC(NC(=O)CCl)CC1.Cl : provide viability at 48 h, 10 µM
90.9

Specify reported viability at 48 h, 10 µM for the compound shown: Cc1nn(-c2ccccc2)c(C)c1NC(=O)CCl
83.2

Given the compound N#Cc1ccc(Cl)cc1NC(=O)CCl , write its reported viability at 48 h, 10 µM.
57.6

Note down viability at 48 h, 10 µM recorded for C=CC(=O)NC(C)C(=O)N1CCc2ccccc21 (stereo not shown)
99.8

Report viability at 48 h, 10 µM, nothing else, for this compound: CC(C)(C)OC(=O)N1CCN(C(=O)CCl)CC1
85.9

Input COC(=O)c1cccc(NC(=O)CCl)c1 , output reported viability at 48 h, 10 µM.
17.7

In one line, give reported viability at 48 h, 10 µM of the entry C=CC(=O)Nc1ccc([N+](=O)[O-])cc1 .
77.4
